Source: paper PMC9090415

target: P. falciparum apicoplast DNA polymerase (Pf-apPOL) (Plasmodium falciparum, UniProt Q8ILY1); assay: Fluorescence-based high-throughput DNA polymerase assay (molecular beacon), primary screen and dose-response; format: biochemical; details: DRC-2; 5'; concentration 80
Sequence (Q8ILY1 entry or part of it): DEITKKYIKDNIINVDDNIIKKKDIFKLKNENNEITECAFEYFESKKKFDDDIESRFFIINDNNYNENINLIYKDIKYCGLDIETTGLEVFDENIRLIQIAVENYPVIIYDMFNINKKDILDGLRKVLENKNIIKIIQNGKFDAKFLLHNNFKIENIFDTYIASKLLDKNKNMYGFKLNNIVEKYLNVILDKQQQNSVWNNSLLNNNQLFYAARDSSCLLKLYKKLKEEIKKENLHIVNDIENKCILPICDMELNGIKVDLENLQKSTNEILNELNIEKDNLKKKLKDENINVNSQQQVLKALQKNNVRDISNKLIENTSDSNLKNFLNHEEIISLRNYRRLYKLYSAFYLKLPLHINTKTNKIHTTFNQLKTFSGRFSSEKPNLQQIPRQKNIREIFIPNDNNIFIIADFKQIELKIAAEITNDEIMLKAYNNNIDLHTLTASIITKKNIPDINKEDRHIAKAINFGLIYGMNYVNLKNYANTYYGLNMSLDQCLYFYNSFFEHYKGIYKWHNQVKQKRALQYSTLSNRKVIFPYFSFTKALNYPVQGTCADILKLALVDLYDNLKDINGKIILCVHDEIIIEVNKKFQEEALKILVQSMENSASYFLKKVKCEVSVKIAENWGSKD
Please note: Yes applies when % inhibition Apo pol 5' is 40% or greater, and No applies otherwise.

The examples below pair each entry with its known result.
> print(dat)
                                   molecule  cat
1  Cc1cc(C)cc(-n2nc3c(c2NC(=O)c2ccco2)CSC3)c1 [KU0055926]  Yes
2  O=C(Cc1cc(=O)[nH]c(SCc2ccccc2)n1)Nc1ccc2c(c1)OCO2 [Molecule 46]   No
3  O=C(Cn1ccc2c(=O)[nH]ccc21)Nc1cc(F)ccc1F [Molecule 42, O=C(Cn1ccc2c1cc[nH]c2=O)Nc1cc(F)ccc1F]   No
4  Cc1cccc2c(C(=O)NC(C)C)cc(N(C)C)nc12 [Molecule 47, CC(NC(=O)c1cc(nc2c1cccc2C)N(C)C)C]   No
5  O=c1[nH]c2ccc([N+](=O)[O-])cc2c(-c2ccccc2)c1Sc1nc2ccccc2o1 [KU0067471]  Yes

Is reported % inhibition Apo pol 5' greater than or equal to 40% here: O=C(Nc1c2c(nn1-c1ccccc1)CSC2)c1ccco1 [KU0055213] Yes

Is reported % inhibition Apo pol 5' greater than or equal to 40% here: COc1cc(NC(=O)c2ccccc2)c(OC)cc1NC(=O)Cc1cccs1 [KU0032113] No

---

target: P. falciparum apicoplast DNA polymerase (Pf-apPOL) (Plasmodium falciparum, UniProt Q8ILY1); assay: Fluorescence-based high-throughput DNA polymerase assay (molecular beacon), primary screen and dose-response; format: biochemical; settings: DRC-2; 40'; concentration 20;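 as to % inhibition Apol 40': compound concentration given in µM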
Please note: TRUE applies when % inhibition Apol 40' is 50% or greater, and FALSE applies otherwise.

Is reported % inhibition Apol 40' greater than or equal to 50% here: CCOC(=O)C1=C2c3cc(OC)c(OC)cc3CC(C)(C)N2C(=O)C1=O [KU0193659] FALSE

Is reported % inhibition Apol 40' greater than or equal to 50% here: O=C1C(=Cc2ccccc2O)Oc2ccc(O)cc21 [KU0196475] FALSE

Is reported % inhibition Apol 40' greater than or equal to 50% here: O=C(CSc1nnc(-c2ccncc2)[nH]1)c1ccc(O)c(O)c1 [Molecule 89] TRUE

Is reported % inhibition Apol 40' greater than or equal to 50% here: Oc1cccnc1/N=C/c1cc(I)cc(I)c1O [KU0073720] TRUE

Is reported % inhibition Apol 40' greater than or equal to 50% here: Cn1nc(C(=O)N2CCc3c(nc4cc(-c5ccccc5)[nH]n4c3=O)C2)c2ccccc21 [Molecule 18] TRUE

Is reported % inhibition Apol 40' greater than or equal to 50% here: O=C(CSc1nnc(-c2ccco2)[nH]1)c1ccc(Cl)cc1 [KU0029065] FALSE

Is reported % inhibition Apol 40' greater than or equal to 50% here: CC(=O)c1cc2c(N)c(/C(N)=N/C#N)sc2nc1C [KU0015866] FALSE

Is reported % inhibition Apol 40' greater than or equal to 50% here: O=C(NC(C(Cl)Cl)S(=O)(=O)c1ccccc1)c1ccccc1 (stereo not drawn) [KU0045239] TRUE

---

molecular target: P. falciparum apicoplast DNA polymerase (Pf-apPOL) (Plasmodium falciparum, UniProt Q8ILY1); assay: Fluorescence-based high-throughput DNA polymerase assay (molecular beacon), primary screen and dose-response; type: biochemical; conditions: DRC-2, 40', concentration 5;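 as to % inhibition Apol 40': compound concentration given in µM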
Reported % inhibition Apol 40' values follow for various compounds
Write the answer as a number in %, unit excluded.

Some compounds with recorded % inhibition Apol 40':
> print(dat)
                                   compound  unit.label  numeric.value
1  O=C(O)c1c(F)c(F)c(-c2c(F)c(F)c(C(=O)O)c(F)c2F)c(F)c1F           %              9
2     O=[N+]([O-])c1cc2c(cc1CN1CCCCCC1)OCO2           %             15
3  Cn1nc(C(=O)N2CCc3c(nc4cc(-c5ccccc5)[nH]n4c3=O)C2)c2ccccc21           %             23
4  CC1=NNC(=O)C1Oc1ccc(Cl)cc1Cl (centres unmarked)           %           4.74
5         Cc1nn(CC(=O)NCCSCc2ccco2)c(C)c1Br           %              7
6  CO/N=C(\C(=O)N[C@@H]1C(=O)N2C(C(=O)[O-])=C(CSc3nc(=O)c([O-])nn3C)CSC12)c1csc(N)n1.[Na+].[Na+] (some centres unmarked)           %          -1.68
7  COc1cc(/C=C2\S/C(=N/C(C)=O)NC2=O)cc(Br)c1OCC(=O)O           %           3.29

Entry O=C(O)C(=O)Nc1nc(-c2ccc3c(c2)OCCO3)cs1 : reported % inhibition Apol 40' = ? 15

---

biological target: P. falciparum apicoplast DNA polymerase (Pf-apPOL) (Plasmodium falciparum, UniProt Q8ILY1); assay: Fluorescence-based high-throughput DNA polymerase assay (molecular beacon), primary screen and dose-response; type: biochemical; conditions: DRC-2; concentration 40; 5'
Please note: YES applies when % inhibition Apo pol 5' is 50% or greater, and NO applies otherwise.

> print(dat)
                                   compound                                 tested.on  cat
1  CCOc1ccc2cc(C3=NN(C(=O)CCC(=O)O)C(c4ccc(C)cc4)C3)c(=O)[nH]c2c1 (centres unmarked)  P. falciparum apicoplast DNA polymerase (Pf-apPOL) (Plasmodium falciparum, UniProt Q8ILY1)  YES

Is reported % inhibition Apo pol 5' greater than or equal to 50% here: O=C(Nc1c2c(nn1-c1ccccc1)CSC2)c1ccco1 YES

Is reported % inhibition Apo pol 5' greater than or equal to 50% here: COc1cc(/C=C2\C(=O)N(c3ccc(C(=O)O)cc3)N=C2C(F)(F)F)ccc1OCC(C)C YES

Is reported % inhibition Apo pol 5' greater than or equal to 50% here: O=C1c2ccccc2C(=O)c2c1oc1c3c(ccc21)OCN(C1CCCC1)C3 NO

---

target: P. falciparum apicoplast DNA polymerase (Pf-apPOL) (Plasmodium falciparum); test: Fluorescence-based high-throughput DNA polymerase assay (molecular beacon), primary screen and dose-response; format: biochemical; conditions: DRC-1; 10'; concentration 2.5
Reported % inhibition Apo pol 10' values follow for various molecules

> print(dat)
                                   molecule                                 tested.on    result
1      O=C1NCCCn2cc(S(=O)(=O)Nc3ccccc3)cc21  P. falciparum apicoplast DNA polymerase (Pf-apPOL) (Plasmodium falciparum)    3.062%
2  CC(C)(C)OC(=O)COc1ccc2cc(-c3ccccc3)c(=O)oc2c1  P. falciparum apicoplast DNA polymerase (Pf-apPOL) (Plasmodium falciparum)  -2.0657%
3  OC(C#Cc1ccccc1)c1ccco1 (centres unmarked)  P. falciparum apicoplast DNA polymerase (Pf-apPOL) (Plasmodium falciparum)  31.3113%
4  COc1ccc(-c2c(C(F)(F)F)nn3c(=O)cc(-c4cccc([N+](=O)[O-])c4)[nH]c23)cc1  P. falciparum apicoplast DNA polymerase (Pf-apPOL) (Plasmodium falciparum)   21.756%
5                   CN(C)C=C1SCc2ccccc2C1=O  P. falciparum apicoplast DNA polymerase (Pf-apPOL) (Plasmodium falciparum)  11.5763%
6  NS(=O)(=O)c1ccc(NC(=O)c2ccc(N3C(=O)CCC3=O)cc2)cc1  P. falciparum apicoplast DNA polymerase (Pf-apPOL) (Plasmodium falciparum)    3.929%
7  Cc1ccc(C)n1-c1ccc(C(=O)NNC(=O)c2ccc3nccnc3c2)cc1  P. falciparum apicoplast DNA polymerase (Pf-apPOL) (Plasmodium falciparum)   0.1394%
8  COc1ccc(C=C2Oc3c(ccc4c3CN(c3ccc5c(c3)OCO5)CO4)C2=O)cc1OC  P. falciparum apicoplast DNA polymerase (Pf-apPOL) (Plasmodium falciparum)   6.7092%

Entry CCC(C)NC(=O)c1cc(NC(C)=O)cc2nc(C)ccc12 (centres unmarked) : reported % inhibition Apo pol 10' = ? 2.024%

Entry O=c1[nH]c2ccc([N+](=O)[O-])cc2c(-c2ccccc2)c1Sc1nc2ccccc2o1 : reported % inhibition Apo pol 10' = ? 11.1433%

Entry COc1cc(NC(=O)c2ccccc2)c(OC)cc1NC(=O)Cc1cccs1 : reported % inhibition Apo pol 10' = ? 6.129%

Entry CCCCC(=O)N1CCc2c(nc3cc(-c4ccccc4Cl)[nH]n3c2=O)C1 : reported % inhibition Apo pol 10' = ? 9.306%

Entry Cc1cccc2c(C(=O)NC(C)C)cc(N(C)C)nc12 : reported % inhibition Apo pol 10' = ? 6.184%

Entry O=c1[nH]c2ccc(Br)cc2c(-c2ccccc2)c1C1=NNC(c2ccco2)C1 (centres unmarked) : reported % inhibition Apo pol 10' = ? 38.7065%
